src = paper PMC4476799

Tested on: cancer cell lines from the cancer cell line encyclopedia (CCLE)
ASSAY NAME: Cell line profiling (CLiP) proliferation experiment
Format: cell-based
CONDITION PARAMETERS: Homo sapiens, ZR-75-30, ZR-75-30 cell line; breast; ductal_carcinoma; read-out: Crossing Point
READOUT NAME: IC50

Give IC50 (cancer cell lines from the cancer cell line encyclopedia (CCLE)) of the following compound: CC(C)[C@@]12C[C@@H](O)[C@@](C)(O1)[C@@H]1CC[C@@H](C)[C@H]1[C@@H]2OC(=O)/C=C/c1ccccc1
> 30 µM

* * *

Tested on: cancer cell lines from the cancer cell line encyclopedia (CCLE)
ASSAY NAME: Cell line profiling (CLiP) proliferation experiment
Type: cell-based
CONDITION PARAMETERS: Homo sapiens, MDA-MB-468, MDA-MB-468 cells; read-out: Crossing Point
pIC50: −log10 of the molar value.
READOUT NAME: pIC50

So what does the record say about pIC50 for CC(C)[C@@]12C[C@@H](O)[C@@](C)(O1)[C@@H]1CC[C@@H](C)[C@H]1[C@@H]2OC(=O)/C=C/c1ccccc1 ?
< 4.52

* * *

System: cancer cell lines from the cancer cell line encyclopedia (CCLE)
ASSAY NAME: Cell line profiling (CLiP) proliferation experiment
Format: cell-based
CONDITION PARAMETERS: Homo sapiens, SHP77, SHP-77 cells; read-out: Inflection Point
Protocol: Compound profiling experiment and data analysis was performed as previously described. Data was imported and plotted using the Tibco Spotfire DXP application. Lines were categorized as sensitive, intermediate and refractory as follows: Amax<-40 & Inflection Point <2 ~ Sensitive, Amax>-20 & Inflection Point >10 ~ Refractory, all else were called Intermediate. Cancer Cell line HG-U133 Plus 2 data was processed and normalized as described. […]
READOUT NAME: EC50 (µM)
Give the value in µM but do not write µM after it.

Query (compound): CC(C)[C@@]12C[C@@H](O)[C@@](C)(O1)[C@@H]1CC[C@@H](C)[C@H]1[C@@H]2OC(=O)/C=C/c1ccccc1 [Englerin B] ; field requested: EC50
14.5

* * *

Test system: cancer cell lines from the cancer cell line encyclopedia (CCLE)
ASSAY NAME: Cell line profiling (CLiP) proliferation experiment
Assay type: cell-based
CONDITION PARAMETERS: Homo sapiens, DU-145, cell line DU 145, prostate; read-out: Crossing Point
Procedure: Compound profiling experiment and data analysis was performed as previously described. Data was imported and plotted using the Tibco Spotfire DXP application. Lines were categorized as sensitive, intermediate and refractory as follows: Amax<-40 & Inflection Point <2 ~ Sensitive, Amax>-20 & Inflection Point >10 ~ Refractory, all else were called Intermediate. Cancer Cell line HG-U133 Plus 2 data was processed and normalized as described. […]
READOUT NAME: IC50 (µM)
Your answer is read as µM, so omit the unit and give the number.

Could you share what IC50 was measured for CC(C)[C@@]12C[C@@H](O)[C@@](C)(O1)[C@@H]1CC[C@@H](C)[C@H]1[C@@H]2OC(=O)/C=C/c1ccccc1 , tested on cancer cell lines from the cancer cell line encyclopedia (CCLE)?
8.94

* * *

Tested on: cancer cell lines from the cancer cell line encyclopedia (CCLE)
ASSAY NAME: Cell line profiling (CLiP) proliferation experiment
Assay type: cell-based
CONDITION PARAMETERS: Homo sapiens, 769-P, cell line 769-P; kidney; clear_cell_renal_cell_carcinoma; read-out: Inflection Point
READOUT NAME: EC50 (µM)
Output spec: scalar in µM, unitless text.

Look up EC50 for this molecule: CC(C)[C@@]12C[C@@H](O)[C@@](C)(O1)[C@@H]1CC[C@@H](C)[C@H]1[C@@H]2OC(=O)/C=C/c1ccccc1
20.5
